assay: inhibitors of PAF-induced NFkB signaling in CF airway cells, dose response, cell-based, uHTS hits, panel, cytotoxicity readout (AID 624344); conditions: CF bronchial epithelial cells, PAF-induced NFkB reporter inhibition, with PAF, run 2; at 79 µM (top of the series) unless noted
observed.property: inhibition (%)
Numbers only here, please. The scale is %.

Would you kindly share the measured inhibition for COc1cccc(-c2cc(NC=O)c3ncc(-c4ccc(C(C)=O)cc4)n3c2)c1 ?
93.6

// inhibition lookup, key: Cc1ccccc1C(=O)N1CCN(c2ccc(NC(=O)c3cccc(OC(C)C)c3)cc2)CC1
86.4

What does the data say about its inhibition? Entry: FC(F)(F)c1nnc2c(Sc3ccccc3)nc3ccccc3n12
88.4

So what's the measured inhibition for this one? COc1ccc2[nH]c(=O)c(CN(Cc3cccnc3)S(=O)(=O)c3ccccc3F)cc2c1
103

# get_value(readout='inhibition', item= CCS(=O)(=O)c1ncc(Cl)c(C(=O)Nc2ccccc2OC)n1 )
86

Name the reported inhibition value associated with the compound CC(=O)c1c(C)n(-c2ccc(C)cc2C)c2ccc(O)cc12
64

Given COc1cc(NC(=O)Cn2ncc(Cl)c(Cl)c2=O)c(C)cc1[N+](=O)[O-] , state its recorded inhibition.
91.1

Need inhibition, item CN(C)CCCN(C(=O)CCOc1ccccc1)c1nc2c(F)cccc2s1
99.1

# inhibition lookup, item C=CC(=O)Nc1cccc(Oc2ncnc3[nH]cc(-c4cnc5ccccc5c4)c23)c1
109

Could you share which inhibition value was measured for c1nc(N2CCOCC2)c2c3c(sc2n1)CCCC3 ?
107

Could you tell me which inhibition is on file for COc1ccc(-c2cc(=O)oc3c(C)c(O)ccc23)cc1 ?
101

# lookup: inhibition of COc1ccc(-c2csc3ncnc(NCCO)c23)cc1
113

# lookup: inhibition of COC(=O)N1C(=O)[C@@](c2ccccc2)(C(C)C)N1C(=O)OC
104

Return reported inhibition; argument: C=Cc1ccc(CC2(C)C(=O)Nc3ccc(-c4cccnc4)cc32)cc1 (configuration not stated)
102

Reported inhibition, compound O=C1NCCc2c1[nH]c1c(Cl)ccc(Cl)c21 : ____
113

Suppose we examine the compound COc1ccccc1[C@]1(C)ON(c2ccccc2C(F)(F)F)C1=O ; what inhibition value has been reported?
109

inhibition for Cc1ccc(C(=O)Nc2cccc(C(F)(F)F)c2)cc1NC(=O)c1cnnc2ccccc12 ?
88.8

For the compound O=C(NCc1nc(-c2ccc(C(F)(F)F)cc2)no1)Nc1cc(Cl)cc(Cl)c1 , what inhibition is on record?
114

Given Cc1ccc(-c2c(C#N)c(N)n3c(nc4ccccc43)c2C#N)cc1 , state its recorded inhibition.
50.7

Fill in the blank: the reported inhibition of O=C(NCCCSc1ccccc1)c1cc(Br)ccc1O is ____.
103

Find the recorded inhibition belonging to C=C1C(=O)C23C(O)C1CCC2C12COC3(O)C(O)C1C(C)(C)CCC2O (configuration not stated) and report it.
76.9

----------
target: PEG-3 (UniProt Q6IN02); experiment: Peg3 promoter luciferase inhibitors, potency, dose response, cell-based, HeLa, CREF/GAPDH counter-screen panel (AID 624167); settings: CREF/GAPDH counter-screens; HeLa PEG-Prom luciferase reporter, overnight, run 1, dose range 1, at 100 µM (top of the series) unless noted
Sequence (Q6IN02 whole entry, looked up): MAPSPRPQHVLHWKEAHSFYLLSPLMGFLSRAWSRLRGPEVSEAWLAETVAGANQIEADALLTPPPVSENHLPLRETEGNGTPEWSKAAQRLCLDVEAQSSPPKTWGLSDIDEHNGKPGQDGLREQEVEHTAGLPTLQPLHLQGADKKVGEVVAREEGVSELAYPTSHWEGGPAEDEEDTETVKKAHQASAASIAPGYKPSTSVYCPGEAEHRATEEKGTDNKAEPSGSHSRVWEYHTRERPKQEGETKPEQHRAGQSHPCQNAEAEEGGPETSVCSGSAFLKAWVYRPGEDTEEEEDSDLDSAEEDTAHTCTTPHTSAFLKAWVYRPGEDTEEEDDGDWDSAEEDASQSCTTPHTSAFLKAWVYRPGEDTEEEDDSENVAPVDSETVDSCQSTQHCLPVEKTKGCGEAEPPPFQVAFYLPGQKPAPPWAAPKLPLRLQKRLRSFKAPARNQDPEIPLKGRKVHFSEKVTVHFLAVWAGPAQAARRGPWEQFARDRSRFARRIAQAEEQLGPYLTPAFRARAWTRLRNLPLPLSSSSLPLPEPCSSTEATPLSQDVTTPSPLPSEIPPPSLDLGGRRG
Can you tell me inhibition for the items I'm about to list?
Kindly provide the numeric value in % only, without the unit symbol.

Sample CCCCC(=O)NC(c1ccc(OC)cc1)c1ccc2cccnc2c1O (stereo not given) — what was its inhibition?
73.4

What value of measured inhibition is listed for CCC1CCCCN1S(=O)(=O)c1ccc(C(=O)N(CCCN(C)C)c2nc3cc4c(cc3s2)OCO4)cc1 (stereo not given) ?
101

Entry CC(C)CC(N)c1csc(NC(=O)Nc2ccccc2C(C)(C)C)n1 (stereo not given) : reported inhibition = ?
102

Item CN1CCC(NC(=O)c2cc(-c3cccc(Br)c3)nc3ccccc23)CC1 has what recorded inhibition?
100

Please report the recorded inhibition for CC(C)CC(=NNC(=O)c1ccncc1)c1cc(Cl)ccc1O .
76.9

What measured inhibition goes with Cc1cccc(/C=C2/Sc3ccc(C(=O)NCCN4CCCC4)cc3NC2=O)c1 ?
99.2

// returns reported inhibition for input COc1ccccc1CN(C)C(=O)c1cc(-c2cc(OC)c(OC)c(OC)c2)nc2ccccc12
83.8

Item under review: Cc1nn(-c2ccccc2)c2c1C(c1ccc([N+](=O)[O-])cc1)N1C(=N2)C(=O)Nc2ccccc21 (stereo not given) . Reported inhibition?
10.2

Return reported inhibition; argument: CN(Cc1ccccc1)C(=O)c1ccc(Nc2nc(C(N)Cc3ccccc3)cs2)nc1 (stereo not given)
102

Recorded inhibition for CCC(C)Sc1ccc(-c2nc3ccccn3c2NCc2ccccc2)cc1OC (stereo not given) , please?
102
